Known Kd of a selection of binders
Molecular target: T1, PUF4 RNA-binding domain (Saccharomyces cerevisiae, UniProt P25339 537-888)
T1 sequence: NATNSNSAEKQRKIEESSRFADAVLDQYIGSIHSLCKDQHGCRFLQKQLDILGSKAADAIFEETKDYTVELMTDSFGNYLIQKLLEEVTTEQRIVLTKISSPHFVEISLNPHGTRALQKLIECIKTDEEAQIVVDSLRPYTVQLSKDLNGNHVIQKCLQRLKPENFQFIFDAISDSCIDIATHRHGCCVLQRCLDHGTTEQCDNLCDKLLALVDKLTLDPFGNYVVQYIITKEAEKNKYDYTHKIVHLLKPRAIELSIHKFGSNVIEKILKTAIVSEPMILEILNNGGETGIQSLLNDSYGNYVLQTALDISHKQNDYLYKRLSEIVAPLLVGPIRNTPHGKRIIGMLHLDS
Assay: Mg; RNA-MaP; 20 mM Na-HEPES pH 7.4, 30 mM KOAc, 0.75 mM MgCl2, 0.1% Tween-20, 5% glycerol, 0.1 mg/mL BSA, 2 mM DTT; 25 C; 0.0125-409.6 nM protein
Settings: tags: N-His6-TEV cleaved; C-SNAP kept, Cy3B-labelled; label: tethered on chip by stalled RNA polymerase
measured.attribute: Kd

binder="ACAAACCCUAUAUAUUACGACAAAC (ssRNA) [Id_ii_S3_P4E.3_K4.2_C4.2_[T-1C]_H4.2_A4.1_F4.1_T4.2_[G10C]_[T11G]]" value_measured="16.6 nM"
binder="UCUCUUUGUACACACCUCUCUU (ssRNA) [Ic_S1_P5E.1_K5.1_C5.1_H5.1_A5.1_[T5C]_[T6A]_[A7C]_F5.1_[T8A]_[T9C]_[A10C]_T5.1]" value_measured="76.8 nM"
binder="Ic_S4_P3E.1_K3.1_C3.1_H3.1_A3.1_[T5C]_[A6T]_F3.1_[A8G]_T3.1 (ssRNA) RNA: UUUGACAACUGAUCGUUCUUUCUUGUACUUGUUCUUUCUCGAUCAGUUGUCUUU" value_measured="103 nM"
binder="Id_ii_S2_P3E.4_K3.3_C3.2_[C-2A]_H3.3_A3.1_F3.1_T3.2_[T9C]_[A10C] (ssRNA) RNA: UUUGAUUAAUAUGAUAUCGUUCUUUCUAUACACUAUACCUUCUUUCUCGAUAUCAUAUUAAUCUUU" value_measured="15.5 nM"
binder="UCUCUUAUUGUAUAUAGCUCUCUU (ssRNA) [Id_ii_S1_P3E.2_K3.1_C3.2_[C-2A]_H3.1_A3.1_F3.1_T3.2_[T9G]_[A10C]]" value_measured="12.1 nM"
binder="Ie_S2_P5E.1_K5.1_C5.1_H5.1_[+3TTT]_A5.1_F5.1_T5.1 (ssRNA) RNA: UUUGAUUAAUAUGAUAUCGUUCUUUCUUGUUUUAUUAUUAUUCUUUCUCGAUAUCAUAUUAAUCUUU" value_measured="11.3 nM"

This collection of values is drawn from paper PMC9352680.
